# testedOn: MabA (Mycobacterium tuberculosis)
# Sequence (P9WGT3 whole entry, looked up): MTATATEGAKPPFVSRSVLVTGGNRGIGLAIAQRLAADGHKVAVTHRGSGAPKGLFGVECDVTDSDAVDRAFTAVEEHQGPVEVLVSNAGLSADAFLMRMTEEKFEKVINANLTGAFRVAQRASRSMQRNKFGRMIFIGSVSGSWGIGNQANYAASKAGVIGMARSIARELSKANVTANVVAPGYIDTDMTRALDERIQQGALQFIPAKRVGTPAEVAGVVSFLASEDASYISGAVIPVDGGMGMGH
The reader will find reported IC50 values listed item by item below.

Below, each entry is followed by its recorded IC50 result.
CS(=O)(=O)NC(=O)c1cc(I)ccc1NC(=O)c1ccc(Cl)c(Cl)c1    28 µM
O=C(O)c1cc(Br)ccc1-c1nc(-c2ccc(Cl)c(Cl)c2)no1    102 µM
O=C(Nc1ccccc1C(=O)O)c1ccc(Cl)c(Cl)c1    > 1000 µM
O=C(O)c1cc(Br)ccc1C(=O)Nc1ccc(Cl)c(Cl)c1    268 µM
O=C(Nc1ccc(I)cc1-c1nnn[nH]1)c1ccc(Cl)c(Cl)c1    24 µM

// switching to the query compound
Consider the compound `O=C(Nc1ccc(Br)cc1C(=O)O)c1ccc(Cl)c(Cl)c1` tested on MabA (Mycobacterium tuberculosis); state its IC50.
45 µM
